Data origin, for the record: the kinase profiling compilation of Christmann-Franck et al. (2016)

biological target: UniProtKB Q8TF76; experiment: radiometric filter-binding kinase assay, Kinase HotSpot; conditions: compound 0.5 µM; ATP 10 µM
Sequence (Q8TF76 whole entry, looked up): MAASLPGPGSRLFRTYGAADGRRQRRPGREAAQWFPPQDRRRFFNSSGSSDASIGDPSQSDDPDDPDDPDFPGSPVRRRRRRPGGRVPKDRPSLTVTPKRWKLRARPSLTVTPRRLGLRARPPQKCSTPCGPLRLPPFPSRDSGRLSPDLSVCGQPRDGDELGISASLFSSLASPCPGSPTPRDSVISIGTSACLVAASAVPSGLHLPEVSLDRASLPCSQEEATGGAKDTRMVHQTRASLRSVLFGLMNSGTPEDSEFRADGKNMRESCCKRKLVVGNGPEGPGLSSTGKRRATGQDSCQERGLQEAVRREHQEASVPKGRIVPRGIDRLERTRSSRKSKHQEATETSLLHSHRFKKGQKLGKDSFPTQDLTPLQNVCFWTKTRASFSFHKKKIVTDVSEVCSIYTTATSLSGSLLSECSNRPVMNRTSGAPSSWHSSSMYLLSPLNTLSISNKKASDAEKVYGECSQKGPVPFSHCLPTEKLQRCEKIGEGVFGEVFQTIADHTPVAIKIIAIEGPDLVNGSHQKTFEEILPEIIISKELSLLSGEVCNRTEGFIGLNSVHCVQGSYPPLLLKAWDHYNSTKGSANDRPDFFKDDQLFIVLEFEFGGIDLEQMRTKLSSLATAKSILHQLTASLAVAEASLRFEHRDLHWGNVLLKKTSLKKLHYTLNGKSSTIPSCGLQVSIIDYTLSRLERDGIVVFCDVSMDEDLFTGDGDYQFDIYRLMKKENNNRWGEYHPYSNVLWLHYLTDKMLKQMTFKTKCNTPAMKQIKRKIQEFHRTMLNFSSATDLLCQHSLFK
Friendly reminder: residual activity below 90% is 1 (yes), at or above is 0 (no).

Please review the following examples before continuing.
structure_smiles_string	class_assignment
CN(C)CCCn1cc(C2=C(c3c[nH]c4ccccc34)C(=O)NC2=O)c2ccccc21	0 (no)
COc1ccc(S(=O)(=O)N(CCO)c2ccccc2CN(C)C/C=C/c2ccc(Cl)cc2)cc1	0 (no)
COc1ccc(C(=O)Nc2sc3c(c2C(N)=O)CCCC3)cc1OC	1 (yes)
Cc1cccc(-c2nc(C(C)(C)C)[nH]c2-c2ccc3c(c2)OCO3)n1	1 (yes)

Just wondering, is residual activity of C[C@@H]1CCN(C(=O)CC#N)C[C@@H]1N(C)c1ncnc2[nH]ccc12 below 90%?
1 (yes)

O=C1c2ccccc2-c2nc3nnnn3nc21 , same question.
1 (yes)

O=C1C(Cl)=C(N2C(=O)CCC2=O)C(=O)c2ccccc21 , same question.
0 (no)

N#C/C(=C\c1ccc(O)c(O)c1)C(=O)NCc1ccccc1 , same question.
0 (no)

Cc1cncc2cccc(S(=O)(=O)N3CCCN(C(=O)CN)C[C@H]3C)c12 , same question.
0 (no)

====

biological target: FER (human) (UniProt P16591); assay: radiometric filter-binding kinase assay, Kinase HotSpot; settings: compound 0.5 µM; ATP 10 µM
Sequence (P16591 whole entry, looked up): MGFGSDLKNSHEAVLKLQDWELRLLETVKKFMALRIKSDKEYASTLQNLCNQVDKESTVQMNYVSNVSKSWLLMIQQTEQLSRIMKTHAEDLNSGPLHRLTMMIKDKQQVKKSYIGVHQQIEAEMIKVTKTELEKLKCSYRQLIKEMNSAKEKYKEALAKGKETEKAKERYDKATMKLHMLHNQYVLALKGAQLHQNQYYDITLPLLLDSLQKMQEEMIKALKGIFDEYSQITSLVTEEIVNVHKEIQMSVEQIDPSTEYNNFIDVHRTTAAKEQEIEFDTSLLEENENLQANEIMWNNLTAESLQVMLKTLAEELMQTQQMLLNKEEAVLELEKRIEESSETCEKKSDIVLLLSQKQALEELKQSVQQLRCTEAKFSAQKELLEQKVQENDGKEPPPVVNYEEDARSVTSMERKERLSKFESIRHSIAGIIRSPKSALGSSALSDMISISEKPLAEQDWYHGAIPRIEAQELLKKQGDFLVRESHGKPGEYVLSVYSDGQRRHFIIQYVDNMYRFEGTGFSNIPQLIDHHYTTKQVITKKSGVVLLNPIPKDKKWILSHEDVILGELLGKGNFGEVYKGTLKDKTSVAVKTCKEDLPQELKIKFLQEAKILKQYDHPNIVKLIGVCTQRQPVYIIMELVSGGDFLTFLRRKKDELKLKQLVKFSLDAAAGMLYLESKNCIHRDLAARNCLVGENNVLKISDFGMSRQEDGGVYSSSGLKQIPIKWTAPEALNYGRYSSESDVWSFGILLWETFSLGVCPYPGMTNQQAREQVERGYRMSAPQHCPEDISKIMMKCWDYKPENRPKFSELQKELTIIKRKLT
Friendly reminder: residual activity below 90% is T, at or above is F.

structure_smiles_string	class_assignment
C[C@@H]1CCN(C(=O)CC#N)C[C@@H]1N(C)c1ncnc2[nH]ccc12	F
Cc1cccc(-c2nc(C(C)(C)C)[nH]c2-c2ccc3c(c2)OCO3)n1	T
Cc1cncc2cccc(S(=O)(=O)N3CCCN(C(=O)CN)C[C@H]3C)c12	T

Just wondering, is residual activity of Ic1cccc(CSc2nnc(-c3ccncc3)o2)c1 below 90%?
F

Cn1c2ccccc2c2c3c(c4c5ccccc5n(CCC#N)c4c21)CNC3=O , same question.
T

COc1cc2ncnc(Nc3ccc(Oc4ccccc4)cc3)c2cc1OC , same question.
T

Fc1ccc(-c2nc3n(c2-c2ccncc2)CCS3)cc1 , same question.
T

CO[C@@H]1[C@H](N(C)C(=O)c2ccccc2)C[C@H]2O[C@]1(C)n1c3ccccc3c3c4c(c5c6ccccc6n2c5c31)C(=O)NC4 , same question.
T

CN(C)S(=O)(=O)c1ccc2c(c1)/C(=C/c1cc3c([nH]1)CCCC3)C(=O)N2 , same question.
T

====

residual activity values, listed per item
target: TSSK2 (human) (UniProt Q96PF2); assay: radiometric filter-binding kinase assay, Kinase HotSpot; conditions: compound 0.5 µM; ATP 10 µM
Sequence (Q96PF2 whole entry, looked up): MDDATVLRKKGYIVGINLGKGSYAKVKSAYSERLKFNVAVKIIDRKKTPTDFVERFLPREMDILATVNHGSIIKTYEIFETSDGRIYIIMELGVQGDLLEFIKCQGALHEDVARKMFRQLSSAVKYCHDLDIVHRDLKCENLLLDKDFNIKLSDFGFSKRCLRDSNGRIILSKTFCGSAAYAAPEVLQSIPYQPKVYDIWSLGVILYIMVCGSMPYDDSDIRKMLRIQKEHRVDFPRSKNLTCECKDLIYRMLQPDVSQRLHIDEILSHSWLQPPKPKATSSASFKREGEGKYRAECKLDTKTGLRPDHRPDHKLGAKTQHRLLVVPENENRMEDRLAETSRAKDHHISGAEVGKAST
All answers are understood in %, so give the number only.

Worked examples follow.
structure_smiles_string	measured_quantity	number
C[C@@H]1CCN(C(=O)CC#N)C[C@@H]1N(C)c1ncnc2[nH]ccc12	residual activity	87.9
Cc1cccc(-c2nc(C(C)(C)C)[nH]c2-c2ccc3c(c2)OCO3)n1	residual activity	92.7
CN(C)CCCn1cc(C2=C(c3c[nH]c4ccccc34)C(=O)NC2=O)c2ccccc21	residual activity	97.3
CN(C)S(=O)(=O)c1ccc2c(c1)/C(=C/c1cc3c([nH]1)CCCC3)C(=O)N2	residual activity	91.8
N#Cc1c[nH]c2c[nH]/c(=N\Cc3cccnc3)cc2/c1=N\c1ccc(F)c(Cl)c1	residual activity	100
O=C1NC(=O)c2c1c1c3ccccc3[nH]c1n1cncc21	residual activity	99.1
c1ccc2c(-c3ccncc3)c[nH]c2c1	residual activity	96.9
COc1ccc(Cl)cc1NC(=O)Nc1cc(C)nc2ccccc12	residual activity	94

Entry N#C/C(=C\c1ccc(O)c(O)c1)C(=O)NCc1ccccc1 : reported residual activity = ?
90

O=C(c1cc2cc(O)ccc2[nH]1)c1cc2cc(O)ccc2[nH]1 , same question.
93.6

====

biological target: ULK1 (human); experiment: radiometric filter-binding kinase assay, Kinase HotSpot; details: compound 0.5 µM; ATP 10 µM
measured_quantity: residual activity
Units required after the number.

structure_smiles_string	result
COc1cc2ncnc(Nc3ccc(OCc4ccccc4)cc3)c2cc1OC	107%

Entry CN(C)S(=O)(=O)c1ccc2c(c1)/C(=C/c1cc3c([nH]1)CCCC3)C(=O)N2 : reported residual activity = ?
6.13%

N#C/C(=C\c1ccc(O)c(O)c1)C(=O)NCc1ccccc1 , same question.
92.9%

Cn1c2ccccc2c2c3c(c4c5ccccc5n(CCC#N)c4c21)CNC3=O , same question.
106%

O=C1Nc2ccc(Br)cc2/C1=C\c1cc2c([nH]1)CCCC2 , same question.
69.4%

O=C1NC(=O)c2c1c1c3ccccc3[nH]c1n1cncc21 , same question.
97.2%

Cc1nc(-c2ccccc2)c(-c2ccncc2)o1 , same question.
84.6%

NC(=O)c1cccc(-c2cc(Nc3ccc(OC(F)(F)F)cc3)ncn2)c1 , same question.
97.5%

Fc1ccc(-c2nc3n(c2-c2ccncc2)CCS3)cc1 , same question.
82.6%

COc1ccc(S(=O)(=O)N(CCO)c2ccccc2CN(C)C/C=C/c2ccc(Cl)cc2)cc1 , same question.
99.7%

c1ccc2c(-c3ccncc3)c[nH]c2c1 , same question.
83.8%

O=C1C(Cl)=C(N2C(=O)CCC2=O)C(=O)c2ccccc21 , same question.
107%

====

molecular target: MAP3K9 (human); test: radiometric filter-binding kinase assay, Kinase HotSpot; settings: compound 0.5 µM; ATP 10 µM
# cutoff 60% applies to residual activity; >= gives Y, < gives N

structure_smiles_string	class_assignment
COc1ccc2c(c1)c(C1=C(c3c[nH]c4ccccc34)C(=O)NC1=O)cn2CCCN(C)C	N
N#C/C(=C\c1ccc(O)c(O)c1)C(=O)NCc1ccccc1	Y
COc1ccc2c(c1)/C(=C/c1cnc[nH]1)C(O)=N2	N

Check if residual activity >= 60% (inclusive). Item: COc1ccc(C(=O)Nc2sc3c(c2C(N)=O)CCCC3)cc1OC
Y

CO[C@@H]1[C@H](N(C)C(=O)c2ccccc2)C[C@H]2O[C@]1(C)n1c3ccccc3c3c4c(c5c6ccccc6n2c5c31)C(=O)NC4 , same question.
N

Cn1c2ccccc2c2c3c(c4c5ccccc5n(CCC#N)c4c21)CNC3=O , same question.
N

COc1ccc(S(=O)(=O)N(CCO)c2ccccc2CN(C)C/C=C/c2ccc(Cl)cc2)cc1 , same question.
Y

CCCCc1c(-c2ccc(OC)cc2)[nH]c2nccnc12 , same question.
N

====

target: PBK (human); assay: radiometric filter-binding kinase assay, Kinase HotSpot; settings: compound 0.5 µM; ATP 10 µM
residual activity values, listed per item
All answers are understood in %, so give the number only.

Worked examples follow.
structure_smiles_string	residual activity [%]
CC(C)(C)c1cc(C=C(C#N)C#N)cc(Br)c1O	102
CN(C)c1ccc(/C=C2\C(=O)Nc3ccccc32)cc1	101

Find residual activity (PBK (human)) for the entry O=C(c1cc2cc(O)ccc2[nH]1)c1cc2cc(O)ccc2[nH]1
100

====

system: MKNK1 (human), Q9BUB5 [T385D; 165-205 del]; assay: radiometric filter-binding kinase assay, Kinase HotSpot; conditions: compound 0.5 µM; ATP 10 µM
Sequence (Q9BUB5 whole entry, looked up, stated change not applied): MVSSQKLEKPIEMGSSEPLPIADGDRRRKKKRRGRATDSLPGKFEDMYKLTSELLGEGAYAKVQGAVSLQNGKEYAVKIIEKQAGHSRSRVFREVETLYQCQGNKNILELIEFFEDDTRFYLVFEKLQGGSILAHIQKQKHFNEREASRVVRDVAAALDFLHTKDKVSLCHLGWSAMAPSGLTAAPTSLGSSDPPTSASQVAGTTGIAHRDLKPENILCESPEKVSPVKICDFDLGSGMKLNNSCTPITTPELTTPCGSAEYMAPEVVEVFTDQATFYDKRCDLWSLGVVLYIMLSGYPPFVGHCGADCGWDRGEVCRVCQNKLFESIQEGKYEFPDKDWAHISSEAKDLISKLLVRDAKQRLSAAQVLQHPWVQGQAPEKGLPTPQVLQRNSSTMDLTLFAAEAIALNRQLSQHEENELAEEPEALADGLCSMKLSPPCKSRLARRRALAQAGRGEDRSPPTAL
# cutoff 90% applies to residual activity; >= gives Criterion met, < gives Criterion not met

structure_smiles_string	class_assignment
N#Cc1c(NC(=O)c2cccc3ccccc23)sc2c1CCCC2	Criterion met
CCN(CC)CCNC(=O)c1c(C)[nH]c(/C=C2\C(=O)Nc3ccc(Cl)cc32)c1C	Criterion not met

Check if residual activity >= 90% (inclusive). Item: O=C(Nc1cccc(Nc2cc(Nc3cccc(C(F)(F)F)c3)ncn2)c1)C1CC1
Criterion met

O=C1Nc2ccccc2/C1=C\c1c(Cl)[nH]c2ccccc12 , same question.
Criterion met

COc1cc2c(Nc3ccc(Br)cc3F)ncnc2cc1OCC1CCN(C)CC1 , same question.
Criterion not met

O=C1c2ccccc2-c2nc3nnnn3nc21 , same question.
Criterion not met

COc1cc2ncnc(N3CCN(C(=O)Nc4ccc(Oc5ccccc5)cc4)CC3)c2cc1OC , same question.
Criterion met

CN(C)CCCn1cc(C2=C(c3c[nH]c4ccccc34)C(=O)NC2=O)c2ccccc21 , same question.
Criterion not met

====

target: STK16 (human); experiment: radiometric filter-binding kinase assay, Kinase HotSpot; settings: compound 0.5 µM; ATP 10 µM
residual activity values, listed per item
All answers are understood in %, so give the number only.

structure_smiles_string	assayed_target	number
O=C1C(Cl)=C(N2C(=O)CCC2=O)C(=O)c2ccccc21	STK16 (human)	100

Entry Cc1cncc2cccc(S(=O)(=O)N3CCCN(C(=O)CN)C[C@H]3C)c12 : reported residual activity = ?
97.9

CS(=O)(=O)CCNCc1ccc(-c2ccc3ncnc(Nc4ccc(OCc5cccc(F)c5)c(Cl)c4)c3c2)o1 , same question.
97.1

CN(C)CCCn1cc(C2=C(c3c[nH]c4ccccc34)C(=O)NC2=O)c2ccccc21 , same question.
80.8

O=C1Nc2ccc(Br)cc2/C1=C\c1cc2c([nH]1)CCCC2 , same question.
94.3
